binders and their reported Trimeric HA Binding RLU
Biological target: recombinant homotrimeric HA, A/Japan/305/57 H2N2 (Influenza A virus A/Japan/305/57 (H2N2))
Assay: trimeric HA microarray, transfection set 5
Settings: remark: other sources report otherwise
recorded-endpoint: Trimeric HA Binding RLU (RLU)

TCN-550 (5096_F06) (antibody, V domains shown) VH: QVQLQESGPGLVKPSETLSLTCTVSGASINSHYWSWIRQPPGKGLEWIGYVYYSGSTTYNPSLKSRVTLSVDTSKNQFSLNLSSVTAADTAFYYCARHPYDVLTGSGDWFDPWGQGTLVTVSS VL: SYVLTQAPSVSVAPGQTARITCGGNAIGSKKVHWYQHKAGQAPVLVVYDDTDRPSGIPERFSGSNSWSTATLTINRVEAGDEADYYCQVWDFTIDHVVFGGGTKLTVL | 731
TCN-540 (5060_F05) (antibody, V domains shown) VH: QVQLVQSGGGVVQPGRSLRLSCAASGFTFSSYAMHWVRQAPGKGLEWVAIISYDGNDQYYTDSVKGRFTISRDSSKVYLQMHRLRPEDTAVYYCAKEFETSGYFHGSFDYWGQGILVTVSS VL: QSALTQPASVSGSPGQSITISCTGTSSDVGGYNYVSWYQQHPGKAPKLLIYEVTNWPSGVSNRFSGSKSGNTASLTISGLQAEDEADYYCSSYAGSSTWVFGGGTRVTVL | 47900
